Data origin, for the record: ChEMBL document CHEMBL3785070

# SUBJECT_OF_TEST: Delta-type opioid receptor (Homo sapiens, UniProt P41143)
# Sequence (P41143 whole entry): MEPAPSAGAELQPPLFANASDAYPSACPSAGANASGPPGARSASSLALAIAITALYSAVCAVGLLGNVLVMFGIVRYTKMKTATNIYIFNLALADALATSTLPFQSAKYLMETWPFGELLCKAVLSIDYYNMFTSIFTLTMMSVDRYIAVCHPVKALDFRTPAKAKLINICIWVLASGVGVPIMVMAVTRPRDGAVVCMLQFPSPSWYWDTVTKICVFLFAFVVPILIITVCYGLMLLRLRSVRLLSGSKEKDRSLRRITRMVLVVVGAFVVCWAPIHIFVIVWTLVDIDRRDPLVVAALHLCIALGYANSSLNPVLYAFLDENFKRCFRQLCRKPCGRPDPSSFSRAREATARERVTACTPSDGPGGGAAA
# ASSAY_PROTOCOL: Agonist activity at human delta opioid receptor expressed in CHO cell membranes by [35S]GTPgammaS binding assay relative to SNC80
# Type: functional
ENDPOINT: Emax (%)
# value in %; strip the unit string

Solved entries (count: 4):
1. O=C1C[C@]23CCN(CC4CC4)[C@H](Cc4ccc(O)cc42)[C@]3(O)C/C1=C/c1ccccc1 40.8
2. O=C1C[C@]23CCN(CC4CC4)[C@H](Cc4ccc(O)cc42)[C@]3(O)C/C1=C\c1ccccc1 37
3. O=C1C[C@]23CCN(CC4CC4)[C@H](Cc4ccc(O)cc42)[C@]3(O)CC/C1=C/c1ccccc1 27
4. Oc1ccc2c(c1)[C@]13CCN(CC4CC4)[C@@H](C2)[C@]1(O)Cc1cc2ccccc2nc1C3 82.6

Input `Oc1ccc2c(c1)[C@]13CCN(CC4CC4)[C@H](C2)[C@]1(O)CCc1c([nH]c2ccccc12)C3` . Output Emax: 64.8

The reported value for `Oc1ccc2c(c1)[C@]13CCN(CC4CC4)[C@H](C2)[C@]1(O)CCc1cc2ccccc2nc1C3` in terms of Emax is 104

# compound `Oc1ccc2c(c1)[C@]13CCN(CC4CC4)[C@@H](C2)[C@]1(O)Cc1c([nH]c2ccccc12)C3` ; its Emax = 38.9

* * *

# log10 Ki per entry
# SUBJECT_OF_TEST: Delta-type opioid receptor (Homo sapiens, UniProt P41143)
# ASSAY_PROTOCOL: Displacement of [3H]DPDPE from human delta opioid receptor expressed in CHO cell membranes
Scale: decimal log of Ki, Ki in nM.

1. O=C1CCC[C@@]2(O)C3Cc4ccc(O)cc4[C@@]2(CCN3CC2CC2)C1 1.08

// field: log10 Ki; key: `O=C1C[C@]23CCN(CC4CC4)[C@H](Cc4ccc(O)cc42)[C@]3(O)C/C1=C/c1ccccc1` ; value = -0.23

// log10 Ki value for `O=C1C[C@]23CCN(CC4CC4)C(Cc4ccc(O)cc42)[C@]3(O)CC/C1=C/c1ccccc1` : 0.99

Measured log10 Ki, `O=C1CC[C@@]2(O)[C@H]3Cc4ccc(O)cc4[C@@]2(CCN3CC2CC2)C1` : 0.42

Note to self: log10 Ki recorded for `Oc1ccc2c(c1)[C@]13CCN(CC4CC4)C(C2)[C@]1(O)Cc1c([nH]c2ccccc12)C3` was -1.02

For reference, reported log10 Ki for `O=C1C[C@]23CCN(CC4CC4)[C@H](Cc4ccc(O)cc42)[C@]3(O)C/C1=C\c1ccccc1` stands at 0.44

Form: compound = `O=C1C[C@]23CCN(CC4CC4)C(Cc4ccc(O)cc42)[C@]3(O)CC/C1=C\c1ccccc1` ; log10 Ki = -0.19

# log10 Ki (compound: `O=C1/C(=C/c2ccccc2)C[C@@]2(O)[C@H]3Cc4ccc(O)c5c4[C@@]2(CCN3CC2CC2)[C@H]1O5` ) is 0.55

* * *

# Kappa-type opioid receptor (Homo sapiens, UniProt P41145): pKi values follow
# Sequence (P41145 whole entry): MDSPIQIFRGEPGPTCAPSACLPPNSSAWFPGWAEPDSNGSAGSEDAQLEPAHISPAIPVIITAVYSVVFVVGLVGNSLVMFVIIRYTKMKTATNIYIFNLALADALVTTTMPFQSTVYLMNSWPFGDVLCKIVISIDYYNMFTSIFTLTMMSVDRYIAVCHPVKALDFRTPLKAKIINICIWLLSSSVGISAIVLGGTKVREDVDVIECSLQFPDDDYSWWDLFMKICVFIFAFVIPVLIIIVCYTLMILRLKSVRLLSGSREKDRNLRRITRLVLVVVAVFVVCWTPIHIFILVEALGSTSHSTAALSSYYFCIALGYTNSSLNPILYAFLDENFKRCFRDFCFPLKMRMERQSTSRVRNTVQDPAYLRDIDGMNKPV
Bear in mind: pKi is minus log10 of a mol/L concentration; give just that figure.

Some solved entries appear below for comparison.
1) O=C1C[C@]23CCN(CC4CC4)C(Cc4ccc(O)cc42)[C@]3(O)CC/C1=C\c1ccccc1 8.04
2) O=C1C[C@]23CCN(CC4CC4)C(Cc4ccc(O)cc42)[C@]3(O)CC/C1=C/c1ccccc1 7.76

Let us move to another entry and its pKi.
Tested system Kappa-type opioid receptor (Homo sapiens, UniProt P41145); pKi recorded for `Oc1ccc2c(c1)[C@]13CCN(CC4CC4)C(C2)[C@]1(O)CCc1cc2ccccc2nc1C3` was 8.37

* * *

Each entry below carries its reported EC50.
# SUBJECT_OF_TEST: Kappa-type opioid receptor (Homo sapiens, UniProt P41145)
# ASSAY_PROTOCOL: Agonist activity at human kappa opioid receptor expressed in CHO cell membranes by [35S]GTPgammaS binding assay
Quick note: give the figure in nM, leave out the unit.

1. O=C1C[C@]23CCN(CC4CC4)[C@H](Cc4ccc(O)cc42)[C@]3(O)C/C1=C\c1ccccc1 8.02

Data point: `O=C1C[C@]23CCN(CC4CC4)C(Cc4ccc(O)cc42)[C@]3(O)CC/C1=C/c1ccccc1` ; EC50 = 21.4

EC50 reported for this compound `O=C1C[C@]23CCN(CC4CC4)C(Cc4ccc(O)cc42)[C@]3(O)CC/C1=C\c1ccccc1` : 14.7

Measured EC50 of `Oc1ccc2c(c1)[C@]13CCN(CC4CC4)C(C2)[C@]1(O)CCc1c([nH]c2ccccc12)C3` : 3.19

Measured EC50 of `Oc1ccc2c(c1)[C@]13CCN(CC4CC4)C(C2)[C@]1(O)CCc1cc2ccccc2nc1C3` : 28.4

Documented EC50 of `Oc1ccc2c(c1)[C@]13CCN(CC4CC4)C(C2)[C@]1(O)Cc1c([nH]c2ccccc12)C3` : 3.76

* * *

# SUBJECT_OF_TEST: Mu-type opioid receptor (Homo sapiens, UniProt P35372)
# Sequence (P35372 whole entry): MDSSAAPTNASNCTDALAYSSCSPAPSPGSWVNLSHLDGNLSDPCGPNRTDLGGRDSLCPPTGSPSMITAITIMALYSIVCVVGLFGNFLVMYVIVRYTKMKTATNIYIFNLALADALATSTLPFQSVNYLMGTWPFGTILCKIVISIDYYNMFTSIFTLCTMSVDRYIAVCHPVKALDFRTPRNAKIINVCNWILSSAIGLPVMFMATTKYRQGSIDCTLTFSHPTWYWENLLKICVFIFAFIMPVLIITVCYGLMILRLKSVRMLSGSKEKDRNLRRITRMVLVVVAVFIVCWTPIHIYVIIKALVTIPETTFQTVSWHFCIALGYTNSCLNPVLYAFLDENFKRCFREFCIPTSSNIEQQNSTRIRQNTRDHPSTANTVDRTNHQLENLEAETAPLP
# ASSAY_PROTOCOL: Agonist activity at human mu opioid receptor expressed in CHO cell membranes by [35S]GTPgammaS binding assay
ENDPOINT: pEC50
The meaning of pEC50 here: minus log10 of the concentration in molar units.

1) Oc1ccc2c(c1)[C@]13CCN(CC4CC4)C(C2)[C@]1(O)CCc1cc2ccccc2nc1C3 7.94

Note: attention shifts to another entry.
pEC50 reported for this compound `Oc1ccc2c(c1)[C@]13CCN(CC4CC4)C(C2)[C@]1(O)CCc1c([nH]c2ccccc12)C3` : 8.21

* * *

Ki listing for selected compounds.
# SUBJECT_OF_TEST: Mu-type opioid receptor (Homo sapiens, UniProt P35372)

Solved cases (3 shown):
1) O=C1CC[C@@]2(O)[C@H]3Cc4ccc(O)cc4[C@@]2(CCN3CC2CC2)C1 0.000769 µM
2) O=C1C[C@]23CCN(CC4CC4)C(Cc4ccc(O)cc42)[C@]3(O)CC/C1=C/c1ccccc1 0.0522 µM
3) O=C1C[C@]23CCN(CC4CC4)[C@H](Cc4ccc(O)cc42)[C@]3(O)C/C1=C\c1ccccc1 0.022 µM

Let us move to another entry and its Ki.
Entry `O=C1C[C@]23CCN(CC4CC4)C(Cc4ccc(O)cc42)[C@]3(O)CC/C1=C\c1ccccc1` , Mu-type opioid receptor (Homo sapiens, UniProt P35372) data, Ki value: 0.00581 µM

* * *

# SUBJECT_OF_TEST: Delta-type opioid receptor (Homo sapiens, UniProt P41143)
# ASSAY_PROTOCOL: Displacement of [3H]DPDPE from human delta opioid receptor expressed in CHO cell membranes
Each entry below lists one item and its recorded Ki value.
Give the quantity in nM, number only.

Sample answers from the record:
1) Oc1ccc2c(c1)[C@]13CCN(CC4CC4)C(C2)[C@]1(O)Cc1cc2ccccc2nc1C3 0.303
2) Oc1ccc2c(c1)[C@]13CCN(CC4CC4)C(C2)[C@]1(O)CCc1c([nH]c2ccccc12)C3 0.531

Attention now turns to another entry.
The reported Ki of the compound `Oc1ccc2c(c1)[C@]13CCN(CC4CC4)C(C2)[C@]1(O)CCc1cc2ccccc2nc1C3` was 2.3
